Reference source: PubChem BioAssay (Tox21)

target: Progesterone receptor (Homo sapiens) (UniProt P06401); assay: qHTS assay to identify small molecule agonists of the progesterone receptor (PR) signaling pathway (AID 1346784); conditions: PR-UAS-bla HEK293T, beta-lactamase FRET ratio, 16 h; series mostly up to 92.4 µM; further: nearly all actives have a fitted effect of over 30% in size
Sequence (P06401 whole entry, looked up): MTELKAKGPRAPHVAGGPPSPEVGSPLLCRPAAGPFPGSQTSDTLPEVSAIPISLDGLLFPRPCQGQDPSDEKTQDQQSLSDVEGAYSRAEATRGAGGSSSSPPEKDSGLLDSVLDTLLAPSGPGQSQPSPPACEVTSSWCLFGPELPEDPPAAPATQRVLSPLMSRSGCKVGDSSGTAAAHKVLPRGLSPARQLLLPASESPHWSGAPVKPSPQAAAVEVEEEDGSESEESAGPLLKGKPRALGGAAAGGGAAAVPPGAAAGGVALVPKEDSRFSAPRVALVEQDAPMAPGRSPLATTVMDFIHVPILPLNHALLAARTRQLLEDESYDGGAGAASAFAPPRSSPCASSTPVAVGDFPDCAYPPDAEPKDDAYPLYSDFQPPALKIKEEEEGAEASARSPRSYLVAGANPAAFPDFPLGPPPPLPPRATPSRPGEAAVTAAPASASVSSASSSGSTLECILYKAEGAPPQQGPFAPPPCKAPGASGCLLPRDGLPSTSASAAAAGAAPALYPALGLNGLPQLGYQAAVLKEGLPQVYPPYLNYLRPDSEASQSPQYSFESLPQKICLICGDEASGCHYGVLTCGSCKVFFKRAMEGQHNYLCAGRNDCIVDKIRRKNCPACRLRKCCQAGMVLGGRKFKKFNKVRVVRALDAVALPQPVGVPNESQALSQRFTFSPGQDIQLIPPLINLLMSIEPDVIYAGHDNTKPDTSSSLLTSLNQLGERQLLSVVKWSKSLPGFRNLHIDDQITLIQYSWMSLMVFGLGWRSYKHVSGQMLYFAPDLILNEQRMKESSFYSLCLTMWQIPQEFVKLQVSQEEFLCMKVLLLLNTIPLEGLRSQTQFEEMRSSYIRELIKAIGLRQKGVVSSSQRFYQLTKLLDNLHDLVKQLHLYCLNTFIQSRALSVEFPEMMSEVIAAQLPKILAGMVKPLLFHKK
Records with an inconclusive call do not appear. Activity calls are given as the source filed them. The call rests on the fitted dose curve.
measured attribute: activation

[
  {
    "molecule": "CCN(CC)CCN",
    "obs value": "inactive"
  },
  {
    "molecule": "O=C(O)CONC(=O)c1ccccc1",
    "obs value": "inactive"
  },
  {
    "molecule": "CC1=C(C(=O)O)N2C(=O)[C@@H](NC(=O)[C@H](N)c3ccccc3)[C@H]2SC1",
    "obs value": "inactive"
  },
  {
    "molecule": "N#Cc1ccccc1O",
    "obs value": "inactive"
  },
  {
    "molecule": "Cn1c(=O)c2c(ncn2CCO)n(C)c1=O",
    "obs value": "inactive"
  },
  {
    "molecule": "CCO[Si](CC)(OCC)OCC",
    "obs value": "inactive"
  },
  {
    "molecule": "COC(=O)c1ccccc1C(=O)O",
    "obs value": "inactive"
  },
  {
    "molecule": "CCC(=O)c1c(O)cc(O)cc1O",
    "obs value": "inactive"
  },
  {
    "molecule": "C=CC(=O)CCCCC",
    "obs value": "inactive"
  },
  {
    "molecule": "CC(CO)(CO)CO",
    "obs value": "inactive"
  },
  {
    "molecule": "CCCc1ccc(O)cc1",
    "obs value": "inactive"
  },
  {
    "molecule": "COP(=O)(O)OP(=O)(O)OC",
    "obs value": "inactive"
  },
  {
    "molecule": "OCC1CCC(CO)CC1 (stereo unspecified)",
    "obs value": "inactive"
  },
  {
    "molecule": "CCN1CCCC1CN (stereo unspecified)",
    "obs value": "inactive"
  },
  {
    "molecule": "CN(C)C(C)(C)CO",
    "obs value": "inactive"
  },
  {
    "molecule": "CCCC(=O)OCCC(C)CCC=C(C)C (stereo unspecified)",
    "obs value": "inactive"
  }
]
